Hi there, I'd appreciate the recorded Ki for every entry that follows.
biological target: KPC-2 β-lactamase (UniProt Q9F663 25-293); assay: β-lactamase inhibition assay (nitrocefin hydrolysis, Morrison tight-binding fit); increasing concentrations of BLIP incubated with 1 nM β-lactamase for 1 h at room temperature in 50 mM sodium phosphate pH 7.0; nitrocefin added at its Km, initial velocity at 482 nm; Ki calculated from Ki app; settings: both partners purified
Sequence (Q9F663 25-293): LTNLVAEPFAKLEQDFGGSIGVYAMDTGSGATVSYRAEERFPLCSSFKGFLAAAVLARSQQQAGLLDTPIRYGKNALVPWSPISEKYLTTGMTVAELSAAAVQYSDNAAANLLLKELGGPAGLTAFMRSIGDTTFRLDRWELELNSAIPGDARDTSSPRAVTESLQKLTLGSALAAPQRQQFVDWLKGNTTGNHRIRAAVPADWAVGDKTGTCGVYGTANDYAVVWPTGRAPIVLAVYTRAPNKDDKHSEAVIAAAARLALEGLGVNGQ
Numbers only, in nM.

Would you please look over these solved cases?
I would be grateful if you could share the reported Ki for BLIP [change] (natural protein) AGVMTGAKFTQIQFGMTRQQVLDIAGAENCETGGSFGDSIHCRGHAAGDTYAYATFGFTSAAADAKVDSKSQEKLLAPSAPTLTLAKFNQVTVGMTRAQVLATVGQGSCTTWSEYYPAYPSTAGVTLSLSCFDVDGYSSTGFYRGSAHLWFTDGVLQGKRQWDLV .
3.5

I would be grateful if you could share the reported Ki for BLIP [change] (natural protein) AGVMTGAKFTQIQFGMTRQQVLDIAGAENCETGGSFGDSIHCRGHAAGDGYAYATFGFTSAAADAKVDSKSQEKLLAPSAPTLTLAKFNQVTVGMTRAQVLATVGQGSCTTWSEYYPAYPSTAGVTLSLSCFDVDGYSSTGFYRGSAHLWFTDGVLQGKRQWDLV .
0.72

Here's the next entry for you.
I would be grateful if you could share the reported Ki for BLIP [change] (natural protein) AGVMTGAKFTQIQFGMTRQQVLDIAGAENCETGGSFGDSIHCRGHAAGDEYAYATFGFTSAAADAKVDSKSQEKLLAPSAPTLTLAKFNQVTVGMTRAQVLATVGQGSCTTWSEYYPAYPSTAGVTLSLSCFDVDGYSSTGFYRGSAHLWFTDGVLQGKRQWDLV .
5.5
